// data source = patent US5977144A

- target system: rat alpha4beta2 receptor (Rattus norvegicus, UniProt P09483+P12390)
- assay notes: Activation of alpha4beta2 receptors expressed in Xenopus oocytes
- Format: cell-based
- setup conditions: read-out: alpha4beta2 activation: response compared to maximal acetylcholine
quantity name: Emax (%)
Answer in %, number only, no unit symbol.

Give the reported Emax for this compound. COc1ccc(C=C2CCCN=C2c2cccnc2)cc1
5

Give the reported Emax for this compound. COc1ccc(C=C2CCCN=C2c2cccnc2)c(O)c1
1

Give the reported Emax for this compound. COc1cc(O)ccc1C=C1CCCN=C1c1cccnc1
4

Give the reported Emax for this compound. Oc1ccc(C=C2CCCN=C2c2cccnc2)cc1 [GTS-7, 3-(4-hydroxybenzylidene)anabaseine]
2

Next, consider the following compound.
Give the reported Emax for this compound. Nc1ccc(C=C2CCCN=C2c2cccnc2)cc1
5

----------
Measured IC50 accompanies every entry in the list below.
- target system: alpha7 receptor (high affinity alpha-bungarotoxin binding, rat brain membranes) (Rattus norvegicus)
- Sequence (Q05941 23-502): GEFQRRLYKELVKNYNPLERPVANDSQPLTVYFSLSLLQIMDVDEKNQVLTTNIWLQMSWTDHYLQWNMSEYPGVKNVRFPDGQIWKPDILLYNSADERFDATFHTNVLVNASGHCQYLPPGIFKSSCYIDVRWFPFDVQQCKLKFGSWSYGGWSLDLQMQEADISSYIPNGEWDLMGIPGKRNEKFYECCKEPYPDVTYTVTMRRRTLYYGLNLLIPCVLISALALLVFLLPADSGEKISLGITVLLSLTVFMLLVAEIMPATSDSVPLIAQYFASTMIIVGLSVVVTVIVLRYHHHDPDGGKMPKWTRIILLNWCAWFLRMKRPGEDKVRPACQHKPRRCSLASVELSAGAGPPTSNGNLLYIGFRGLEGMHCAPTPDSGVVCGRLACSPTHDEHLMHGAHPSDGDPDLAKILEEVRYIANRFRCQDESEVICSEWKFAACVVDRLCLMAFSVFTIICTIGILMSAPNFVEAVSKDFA
Answer in nM, number only, no unit symbol.

These solved cases illustrate the format of a correct answer.
Give the reported IC50 for this compound. C(=C\c1ccccc1)/C=C1\CCCN=C1c1cccnc1 [3-CA, E,E-3-(Cinnamylidene)anabaseine]
80

Give the reported IC50 for this compound. COc1ccc(/C=C/C=C2\CCCN=C2c2cccnc2)cc1 [4-MeOCA, E,E-3-(4-Methoxycinnamylidene)anabaseine]
54

Next, consider the following compound.
Give the reported IC50 for this compound. COc1ccccc1/C=C/C=C1\CCCN=C1c1cccnc1 [2-MeOCA, E,E-3-(2-Methoxycinnamylidene)anabaseine]
8

----------
- target system: UniProt Q05941
- assay notes: cell-based
- Parameters: unit not given here
- setup conditions: Table 4
quantity name: Oocytes Antagonist

These solved cases illustrate the format of a correct answer.
Give the reported Oocytes Antagonist for this molecule. C(=C\c1ccccc1)/C=C1\CCCN=C1c1cccnc1
.50

Give the reported Oocytes Antagonist for this molecule. CN(C)CCCOc1ccc(C=C2CCCN=C2c2cccnc2)cc1
.02

Give the reported Oocytes Antagonist for this molecule. COc1ccccc1/C=C/C=C1\CCCN=C1c1cccnc1
.08

Give the reported Oocytes Antagonist for this molecule. COc1ccc(/C=C/C=C2\CCCN=C2c2cccnc2)cc1
.104

More entries:
Give the reported Oocytes Antagonist for this molecule. COc1ccc(/C=C2\CCCN=C2c2cccnc2)c(OC)c1
.20

----------
Measured EC50 accompanies every entry in the list below.
- target system: rat alpha7 receptor (Rattus norvegicus, UniProt Q05941)
- Sequence (Q05941 23-502): as above
- assay notes: cell-based
- setup conditions: oocytes; read-out: α7 EC50

Give rat alpha7 receptor (Rattus norvegicus, UniProt Q05941) EC50 for the following compound: C(=C\c1ccccc1)/C=C1\CCCN=C1c1cccnc1
3.2 µM

Give rat alpha7 receptor (Rattus norvegicus, UniProt Q05941) EC50 for the following compound: COc1ccc(/C=C/C=C2\CCCN=C2c2cccnc2)cc1
15.9 µM

More entries:
Give rat alpha7 receptor (Rattus norvegicus, UniProt Q05941) EC50 for the following compound: COc1ccccc1/C=C/C=C1\CCCN=C1c1cccnc1
6.2 µM
